Target chain: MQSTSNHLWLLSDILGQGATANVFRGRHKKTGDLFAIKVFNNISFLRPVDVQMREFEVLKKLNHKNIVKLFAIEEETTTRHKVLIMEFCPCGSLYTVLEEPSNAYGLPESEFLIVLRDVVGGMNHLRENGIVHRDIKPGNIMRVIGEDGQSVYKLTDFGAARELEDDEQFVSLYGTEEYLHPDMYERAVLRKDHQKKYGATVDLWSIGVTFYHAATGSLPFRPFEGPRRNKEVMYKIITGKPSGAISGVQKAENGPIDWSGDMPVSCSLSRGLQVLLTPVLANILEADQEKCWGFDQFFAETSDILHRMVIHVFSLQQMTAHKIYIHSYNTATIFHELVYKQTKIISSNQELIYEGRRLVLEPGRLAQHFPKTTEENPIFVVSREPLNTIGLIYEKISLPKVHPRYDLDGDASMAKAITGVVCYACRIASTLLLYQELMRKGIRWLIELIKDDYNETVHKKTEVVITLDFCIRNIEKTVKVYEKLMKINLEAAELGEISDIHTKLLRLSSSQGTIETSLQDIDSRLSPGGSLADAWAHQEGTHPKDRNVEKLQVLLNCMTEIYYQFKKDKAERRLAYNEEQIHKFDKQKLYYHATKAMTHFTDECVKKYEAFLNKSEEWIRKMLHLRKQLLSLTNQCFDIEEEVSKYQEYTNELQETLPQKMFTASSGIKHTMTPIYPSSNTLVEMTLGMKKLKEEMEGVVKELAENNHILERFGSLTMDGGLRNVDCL
measured.property: IC50 (nM)

Some entries whose results are on file:
O=C(OC1CCCC1)N1CC=C(c2c[nH]c3ncc(-c4cccc(C(=O)N5CCOCC5)c4)cc23)CC1 [Example 184] :: 100
O=C(NCc1ccco1)c1ccc(-c2cnc3[nH]cc(C4=CCN(C(=O)NC5CCCC5)CC4)c3c2)cc1 [Example 66] :: 250

P. CC(C)NC(=O)N1CC=C(c2c[nH]c3ncc(-c4ccc(CN5CCOCC5)cc4)cc23)CC1 [Example 30]
Q. COc1ccc(-c2cnc3[nH]cc(C4=C(F)CN(C(=O)NC5CCCC5)CC4)c3c2)cc1OC [Example 133]
R. CC(=O)N1CC=C(c2c[nH]c3ncc(-c4ccc(CN5CCOCC5)s4)cc23)CC1 [Example 8]
S. CC1CC(c2c[nH]c3ncc(-c4ccc(CN5CCN(C)CC5)s4)cc23)=CCN1C(=O)NC1CCCC1 (stereo not shown) [Example 103]
Form: Sort by [IC50] Order [ ascending ] Reply: labels, ordered per the request. P, S, R, Q
(P: 4.5 nM, S: 58 nM, R: 140 nM, Q: 220 nM)

* * *

tested.target: TBK1 (Homo sapiens, UniProt Q9UHD2)
Sequence (Q9UHD2 1-729): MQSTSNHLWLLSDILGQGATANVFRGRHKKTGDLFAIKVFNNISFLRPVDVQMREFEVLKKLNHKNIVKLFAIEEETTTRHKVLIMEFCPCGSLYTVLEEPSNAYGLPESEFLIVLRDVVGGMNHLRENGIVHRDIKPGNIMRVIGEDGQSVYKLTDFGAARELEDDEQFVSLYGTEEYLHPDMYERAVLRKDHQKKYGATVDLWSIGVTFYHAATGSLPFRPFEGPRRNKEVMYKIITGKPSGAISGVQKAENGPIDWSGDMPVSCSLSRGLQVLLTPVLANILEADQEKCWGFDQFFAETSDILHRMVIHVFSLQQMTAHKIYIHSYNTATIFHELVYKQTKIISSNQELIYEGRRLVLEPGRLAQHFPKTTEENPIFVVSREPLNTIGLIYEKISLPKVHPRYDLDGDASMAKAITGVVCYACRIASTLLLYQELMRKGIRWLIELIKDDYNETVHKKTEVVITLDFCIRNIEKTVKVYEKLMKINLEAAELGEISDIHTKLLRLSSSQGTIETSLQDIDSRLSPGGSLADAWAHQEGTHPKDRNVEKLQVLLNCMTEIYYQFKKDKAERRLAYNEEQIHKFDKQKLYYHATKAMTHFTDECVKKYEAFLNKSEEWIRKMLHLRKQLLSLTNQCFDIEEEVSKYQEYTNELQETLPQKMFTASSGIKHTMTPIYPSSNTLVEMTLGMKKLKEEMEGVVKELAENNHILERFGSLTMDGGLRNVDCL
measured.property: IC50 (nM)

COc1ccc(-c2cnc3[nH]cc(C4=C(C)CN(C(=O)NC5CCCC5)CC4)c3c2)cc1OC :: 240
CC(C)NC(=O)N1CCC(c2c[nH]c3ncc(-c4ccc(C(=O)N5CCN(C)CC5)cc4)cc23)=CC1C (stereo not shown) :: 2.8

a. CC(C)OC(=O)N1CC=C(c2c[nH]c3ncc(-c4ccc(S(C)(=O)=O)cc4)cc23)CC1
b. CCCOc1cccc(-c2cnc3[nH]cc(C4=CCN(C(=O)OC(C)(C)C)CC4)c3c2)c1
Compare a and b by numeric IC50 and name the larger one. Write down the label of the entry you select. b
(b: 1300 nM, a: 54 nM)

Ref: patent US10239873B2
